protocol details: growth suppression of PTEN-deleted HCT116, pilot screen, cell-based, HCT116 clonal line, CellTiter-Glo (AID 824);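 further: 0% = 20 µM Hyamine control and 100% = vehicle cell control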
reported conditions: 60 h, at 10 µM, stronger effect = lower value
Records with an inconclusive call do not appear.
Exercise: for every item that follows, state its recorded viability.
Write the number in % without appending the unit.

viability for `CS(=O)(=O)N(CC(=O)NCc1ccco1)c1cc(C(F)(F)F)ccc1Cl` ?
92.8

viability for `CCCCN(C(=O)NC(=O)C1=C(N2CCOCC2)/C(=C/c2ccccc2)CC1)S(C)(=O)=O` ?
89.8

viability for `Cn1cc(SCC(=O)Nc2ccc3c(c2)OCO3)c2ccccc21` ?
92.9

viability for Cc1ccc(-n2c(SCC(=O)NCC3CCCO3)nc3c(c2=O)SCC3)cc1 (stereo not given) ?
96.7

viability for `COC(=O)CN(n1cnnc1)S(=O)(=O)c1ccccc1` ?
96.9

viability for CC(=O)c1ccc(OCC(O)CN2CCCC(C)C2)cc1 (stereo not given) ?
96.7

viability for `COCCNC(=O)CN1C(=O)CSc2cc(S(=O)(=O)N3CCCCCC3)ccc21` ?
109

viability for `O=C(c1cc2ccccn2n1)N1CCN(c2ccccn2)CC1` ?
106

viability for `CCCc1cc(C(=O)NC2CCCC2)no1` ?
98.1

viability for CCOC(=O)CN1C(=O)C(O)(CC(=O)c2ccccn2)c2ccccc21 (stereo not given) ?
92

viability for `O=C(NCCO)c1ccc(-c2nnc(N3CCOCC3)c3ccccc23)cc1` ?
89.6

viability for `CCOC(=O)N1CCN(C(=O)c2ccccc2Oc2ccccc2)CC1` ?
93.3

viability for CC1CCc2nn(CC(=O)Nc3c(F)cc(F)cc3Br)cc2C1 (stereo not given) ?
90.3

viability for `O=C(CN1CCN(Cc2ccc(Cl)cc2)C1=O)NCCN1CCCC1` ?
96.7

viability for `CCOC(=O)Cn1c(=O)oc2cc(S(=O)(=O)Nc3cc(Cl)ccc3OC)ccc21` ?
89

viability for COc1ccc(C2C(C(=O)Nc3cccc(C)n3)c3ccccc3C(=O)N2C)cc1 (stereo not given) ?
93.9

viability for `Cn1c(=O)c2c(SCc3cccnc3)nc(C3CC3)nc2n(C)c1=O` ?
83.4

viability for `CCn1cc(C(=O)NCC(=O)OC)c2cc(OC)c(OC)cc2c1=O` ?
104

viability for `CC(C)CCNC(=O)Cn1cc2c(n1)CCCCC2` ?
100

viability for COc1ccc(N2C(=O)CCC(C(=O)Nc3ccccn3)C2c2ccc(OC)c(OC)c2)cc1 (stereo not given) ?
96.9

viability for `O=C(c1ccc(CS(=O)(=O)c2ccc(Br)cc2)o1)N1CCN(c2ccccn2)CC1` ?
84.4

viability for CC(Oc1ccc(Cl)cc1Cl)C(=O)NCCCN(C)C (stereo not given) ?
100

viability for O=C1CC(c2ccco2)CC(O)=C1C=NCCO (stereo not given) ?
105

viability for `COc1ccc(C(=O)Nc2ccc3oc(-c4cccc(F)c4)nc3c2)cc1OC` ?
90.3

viability for `Cc1ccc(C)c(N2CCN(C(=O)c3cc4ccccc4oc3=O)CC2)c1` ?
95.5

viability for Cc1cccc(OCc2nc(C#N)c(N3CC(C)CC(C)C3)o2)c1 (stereo not given) ?
65.3

viability for `CCN(CC)C(=O)CSc1ccccc1N` ?
94.4

viability for COc1ccccc1C1C(C(N)=O)=C(C)Nc2nc(-c3ccc(Cl)cc3)nn21 (stereo not given) ?
92.4

viability for O=C(NCCN1C(=O)C2C3C=CC(C3)C2C1=O)Nc1ccc(Br)cc1 (stereo not given) ?
88.3

viability for `COc1ccc(Cc2nnc(Nc3ccc(C)cc3C)[nH]c2=O)cc1` ?
94.2

viability for CCOC(=O)c1ccc(NC(=O)C(C)N2C(=O)c3ccccc3C2=O)cc1 (stereo not given) ?
100

viability for `O=C(CSc1nnc(Cn2c(=O)sc3ccccc32)n1-c1ccccc1)NCc1ccco1` ?
98.1

viability for `Cn1c(=O)c2c(nc(SCc3cc4c(cc3Cl)OCO4)n2C)n(C)c1=O` ?
100

viability for COCCNC(=O)C1CC(=O)N(c2ccc(F)c(Cl)c2)C1 (stereo not given) ?
95.7

viability for CCCC(=O)NC(C)c1nc2ccccc2n1C (stereo not given) ?
102

viability for Cc1ccc(Cn2c(CN3CC(C)OC(C)C3)nc3c2c(=O)n(C)c(=O)n3C)cc1 (stereo not given) ?
95.1

viability for `O=C(Cn1ncc2c1-c1ccccc1OC2)Nc1nc2ccccc2s1` ?
84.5

viability for `O=C(Cn1nnc(-c2ccccc2F)n1)NCCc1ccccc1` ?
94

viability for `c1nc(N2CCCCC2)c2[nH]cnc2n1` ?
102

viability for `O=C(Nc1nccs1)C12CC3CC(C1)CC(C(=O)Nc1nccs1)(C3)C2` ?
78.7

viability for `O=C(CCNS(=O)(=O)c1cccc2nsnc12)NCCc1ccccc1` ?
97.6

viability for `COc1ccccc1N1CCN(C(=O)c2cc3c(=O)n(C)c4ccccc4c3n2C)CC1` ?
72

viability for `CCOC(=O)Cn1c(=O)oc2cc(S(=O)(=O)N3CCc4ccccc43)ccc21` ?
93.8

viability for `COc1ccc(NC(C)=O)cc1NC(=O)CSc1nnc(-c2ccncc2)n1C` ?
106

viability for `CCOC(=O)c1ccc(Nc2nnc(C(C)(C)C)c(=O)[nH]2)cc1` ?
43.7

###

Exercise: for every item that follows, state its recorded growth inhibition.
protocol details: Restrictive medium S. cerevisiae growth inhibition, OD615, pilot screen of yeast lifespan reduction project, restrictive growth control (AID 706);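 further: modified DeaD lifespan yeast strain shifted to restrictive glucose medium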
reported conditions: OD615, 48 h, at 10 µM, stronger effect = higher value
Write the number in % without appending the unit.

growth inhibition for COc1cc(C2NC(=O)N(C)C3=C2C(=O)CCC3)cc(OC)c1OC (stereo not given) ?
-17.1

growth inhibition for `COc1cc(C(=O)Nc2ccc(S(=O)(=O)Nc3onc(C)c3C)cc2)cc(OC)c1OC` ?
-14.8

growth inhibition for `c1ccc2c(c1)CCCN2c1nc2ccccc2n2cnnc12` ?
-9.76

growth inhibition for `C=C1c2cc(CC)ccc2NC(=O)N1c1ccc(C)cc1` ?
-2.23

growth inhibition for `Cn1ccnc1SCC(=O)c1cc2ccccc2o1` ?
-0.315

growth inhibition for `Clc1ccc(-c2nc(-c3ccccn3)no2)cc1Cl` ?
0.26

growth inhibition for `CCOc1ccc(-c2nc(CSCC(=O)N3CCN(C(=O)c4ccco4)CC3)c(C)o2)cc1` ?
26

growth inhibition for `O=c1[nH]c2ccc(Cl)cc2c(-c2ccccc2)c1N1CCOCC1` ?
-0.51

growth inhibition for `O=C(Cc1cc(=O)[nH]c(=O)[nH]1)N1CCC(Cc2ccccc2)CC1` ?
-5.47

growth inhibition for `COC(=O)c1ccc(Nc2cc(C)nc3nc(C)nn23)cc1` ?
-4.57

growth inhibition for `Cc1c(NC(=O)C2CCN(S(=O)(=O)c3ccccc3)CC2)c(=O)n(-c2ccccc2)n1C` ?
-4.28

growth inhibition for `O=c1cc(O)c2c(=O)n(-c3ccccc3)c3ccccc3c2o1` ?
4.96

growth inhibition for `COc1ccc(C)cc1NC(=O)c1ccoc1C` ?
4.09

growth inhibition for O=C1CC(c2ccccc2)C(C(=O)Nc2ccccc2F)N1 (stereo not given) ?
2

growth inhibition for `COc1ccc(NC(=O)NCCCN2CCc3ccccc3C2)cc1` ?
0.72

growth inhibition for CCC(=O)NC(c1ccccc1)c1nc2ccccc2[nH]1 (stereo not given) ?
-14.2

growth inhibition for `CC1(C)Cc2ccccc2-c2nc(NCCO)n(-c3ccccc3)c(=O)c21` ?
-15.2

growth inhibition for `O=C(NCCCNC(=O)c1ccco1)c1ccco1` ?
0.005

growth inhibition for `N#CC1=C2C=CC=CN2CC1=O` ?
-15.7

growth inhibition for `c1ccc(-c2nnn(C34CC5CC(CC(C5)C3)C4)n2)cc1` ?
-0.125

growth inhibition for `Cc1ccc(-c2cc(C(F)(F)F)n3ncc(C(=O)NCc4ccco4)c3n2)cc1` ?
-12.6

growth inhibition for `CCCn1c(-c2ccc(OC)cc2)nc2ccccc21` ?
-12.9

growth inhibition for `O=C(C1CCN(S(=O)(=O)c2cccc3cccnc23)CC1)N1CCn2c1nc1ccccc12` ?
-3.35

growth inhibition for COc1cccc(C2N(c3ccc(Cl)cc3)C(=O)C3CCCN32)c1 (stereo not given) ?
1.89

growth inhibition for `CC(C)Cc1nc(C(N)=O)c2[nH]c(=O)n(-c3ccc(F)cc3)c2n1` ?
-27.8

growth inhibition for `O=S(=O)(Nc1ccc(-c2nc3cccnc3s2)cc1)c1cccs1` ?
-6.65

growth inhibition for `Cn1c(=O)[nH]c(=O)c2c1nc(N1CCN(c3ccccc3)CC1)n2CCSc1ncccn1` ?
7.86

growth inhibition for C=CCOC(=O)C1=C(C)NC(=O)NC1c1ccc(OC(=O)c2ccco2)c(OC)c1 (stereo not given) ?
-18.3

growth inhibition for `C=C(C)Cc1c(C)nc(-c2ccccc2)[nH]c1=O` ?
-14.1

growth inhibition for CC1CCCCN1CCNC(=O)c1cc2c(-c3ccccc3F)nn(C)c2s1 (stereo not given) ?
0.025

growth inhibition for `CCC(=O)N1CC2(C)CN(C(=O)CC)CC(C)(C1)C2` ?
-24.9

growth inhibition for C=CCN1C(=O)C2C(C(=O)NC)C3(C)C=CC2(O3)C1C(=O)NCc1ccc(OC)cc1 (stereo not given) ?
3.69

growth inhibition for `CN(CCO)c1ncnc2nc[nH]c12` ?
-7.77

growth inhibition for COc1ccc(C(=O)Nc2nncs2)cc1S(=O)(=O)N1CC(c2ccccc2)CC1=O (stereo not given) ?
18

growth inhibition for `COc1ccc(-c2cn3c(C)c(C(=O)N4CCCc5ccccc54)sc3n2)cc1` ?
24.2

growth inhibition for CCOC(=O)N1CCC(NC(=O)c2ccc(NC(=O)C3CCCO3)cc2)CC1 (stereo not given) ?
-9.25

growth inhibition for `CSc1oc(-c2ccc(F)cc2)nc1S(=O)(=O)c1ccccc1` ?
0.385

growth inhibition for `Cn1c(NC(=O)C2CC2)cc(=O)n(C)c1=O` ?
1.9

growth inhibition for COc1cc(C2C3=C(CC(c4ccco4)CC3=O)Nc3ccccc3N2C(C)=O)cc(OC)c1OC (stereo not given) ?
8.4

growth inhibition for `O=C(c1ccc(S(=O)(=O)N2CCOCC2)cc1)N1CCN(c2ccccc2)CC1` ?
2.02

growth inhibition for CCC1CCCCN1Cc1nc2c(c(=O)n(C)c(=O)n2C)n1Cc1cccc2ccccc12 (stereo not given) ?
-7.96

growth inhibition for `Cn1c(C(=O)N2CCCCCC2)cc2c(=O)n(C)c3ccccc3c21` ?
-2.14

growth inhibition for `COc1ccc(NC(=O)[C@H](CCS(C)(=O)=O)N2Cc3ccccc3C2=O)c(OC)c1` ?
-0.57

growth inhibition for `O=C(CCc1nc2ccccc2[nH]1)N1CCN(C(=O)c2ccco2)CC1` ?
-5.44

growth inhibition for `Cc1ccc(SCC(=O)NCC(C)C)cc1` ?
6.93
